Assay: chemical genetic growth profiling, strain panel (AID 1159580);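 further: tested at 20 µM; growth read once vehicle control cultures reached saturation at 30 °C; lower values mean less growth of the strain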
Conditions: S. cerevisiae deletion strains, growth OD, locus YDR150W, strain NUM1
Hit rate of the full screen: of about 5,500 compounds, about 2,000 (36%) were called active. About 18% were inconclusive and are not listed. No stated cut-off is given here; in the data, active means normalized growth mostly below about 0.91 (no sharp cut-off); inconclusive means no clear call, values can overlap the other calls; inactive means mostly above about 0.92. This is one part of the list.
Outcomes: active, inactive

[[record]]
molecule = "CN(C)CCCN1c2ccccc2CCc2ccc(Cl)cc21"
assigned_label = "inactive"

[[record]]
molecule = "CC(=O)O[C@H]1CC[C@@]2(C)C(=CC(=O)C3C4CCC(C(C)CCCC(C)C)[C@@]4(C)CCC32)C1 (stereo partly drawn)"
assigned_label = "inactive"

[[record]]
molecule = "COC(=O)c1c(C)c2c(c(C)c1OC)OC(=O)c1c(C)c(Cl)c(OC)c(Cl)c1O2"
assigned_label = "inactive"

[[record]]
molecule = "O=S(=O)(Oc1ccc(OCc2ccccc2)cc1)c1cc(Cl)cc(Cl)c1"
assigned_label = "inactive"

[[record]]
molecule = "N=C(N)N"
assigned_label = "inactive"

[[record]]
molecule = "CC1(C)CCC=[N+]1[O-]"
assigned_label = "inactive"

[[record]]
molecule = "CCCc1cc(=O)[nH]c(=S)[nH]1"
assigned_label = "inactive"

[[record]]
molecule = "CC(C)CC1NC(=O)CNC1=O (stereo not drawn)"
assigned_label = "inactive"

[[record]]
molecule = "C=C1c2c(Cl)ccc(O)c2C(O)=C2C(=O)[C@]3(O)C(O)=C(C(N)=O)C(=O)[C@@H](N(C)C)[C@@H]3[C@@H](O)[C@H]12"
assigned_label = "inactive"

[[record]]
molecule = "CN(C)CCCN1c2ccccc2Sc2ccccc21"
assigned_label = "inactive"

[[record]]
molecule = "CC(C)CCCC(C)[C@H]1CCC2C3C(=O)C=C4C[C@@H](O)CC[C@]4(C)C3CC[C@@]21C (stereo partly drawn)"
assigned_label = "inactive"

[[record]]
molecule = "CCc1cccc(N(C)C(N)=Nc2cccc3ccccc23)c1"
assigned_label = "inactive"

[[record]]
molecule = "c1ccc(-c2csc(-c3ccncc3)n2)cc1"
assigned_label = "inactive"

[[record]]
molecule = "CN(C)C1C(=O)C(C(N)=O)=C(O)C2(O)C(=O)C3=C(O)c4c(O)ccc(Cl)c4C(O)C3CC12 (stereo not drawn)"
assigned_label = "inactive"

[[record]]
molecule = "CCOC(=O)c1ccc(NC(N)=S)cc1"
assigned_label = "inactive"

[[record]]
molecule = "Cc1cc(=O)[nH]c(=S)[nH]1"
assigned_label = "inactive"

[[record]]
molecule = "O=c1[nH]c2cc(Cl)ccc2c(O)c1-c1ccc(Oc2ccccc2)cc1"
assigned_label = "inactive"

[[record]]
molecule = "OC(c1ccccc1)(c1ccccc1)c1ccncc1"
assigned_label = "inactive"

[[record]]
molecule = "CC1c2cccc(O)c2C(O)=C2C(=O)C3(O)C(O)=C(C(N)=O)C(=O)C(N(C)C)C3C(O)C21 (stereo not drawn)"
assigned_label = "inactive"

[[record]]
molecule = "CC(C)CCCC(C)C1CCC2C3CC(=O)[C@H]4C[C@@H](O)CC[C@]4(C)C3CC[C@]12C (stereo partly drawn)"
assigned_label = "inactive"

[[record]]
molecule = "N/C(Cc1cccc2ccccc12)=N/O"
assigned_label = "inactive"

[[record]]
molecule = "CC(=O)NNC(=O)N1Cc2ccccc2Oc2ccc(Cl)cc21"
assigned_label = "inactive"

[[record]]
molecule = "C=C1c2cccc(O)c2C(O)=C2C(=O)[C@]3(O)C(O)=C(C(N)=O)C(=O)[C@@H](N(C)C)[C@@H]3[C@@H](O)[C@H]12"
assigned_label = "inactive"

[[record]]
molecule = "NC(N)=NC(N)=Nc1ccc2c(c1)OCCO2"
assigned_label = "inactive"

[[record]]
molecule = "O=C(O)CSC1CCS(=O)(=O)C1 (stereo not drawn)"
assigned_label = "inactive"

[[record]]
molecule = "OCc1ccccc1-c1ccccc1"
assigned_label = "inactive"

[[record]]
molecule = "Fc1cc(F)cc(COc2cc(Cl)cc(Cl)c2)c1"
assigned_label = "inactive"

[[record]]
molecule = "CC(CCc1ccccc1)NCC(O)c1ccc(O)c(C(N)=O)c1 (stereo not drawn)"
assigned_label = "inactive"

[[record]]
molecule = "Clc1cncc(Cl)c1N/N=C\\C1CC2C=CC1C2 (stereo not drawn)"
assigned_label = "inactive"

[[record]]
molecule = "COC(=O)c1c(OC)cc2c(c1C)Oc1c(Cl)c(O)c(Cl)c(C)c1C(=O)O2"
assigned_label = "active"

[[record]]
molecule = "COc1ccc([C@@H]2Sc3ccccc3N(CCN(C)C)C(=O)[C@@H]2OC(C)=O)cc1"
assigned_label = "inactive"

[[record]]
molecule = "CCCc1cc(=O)oc2cc(OCC(=O)OCC)ccc12"
assigned_label = "inactive"

[[record]]
molecule = "CN(C)[C@@H]1C(=O)C(C(N)=O)=C(O)[C@@]2(O)C(=O)C3=C(O)c4c(O)cccc4[C@@](C)(O)[C@H]3[C@H](O)[C@@H]12"
assigned_label = "inactive"

[[record]]
molecule = "COC(=O)C/C(N)=C(\\C#N)C(=O)OC"
assigned_label = "inactive"

[[record]]
molecule = "Oc1c(Cl)cc(Cl)cc1Sc1cc(Cl)cc(Cl)c1O"
assigned_label = "inactive"

[[record]]
molecule = "c1ccc(-c2nc(-c3cccs3)cs2)cc1"
assigned_label = "inactive"

[[record]]
molecule = "N=C(N)c1ccccc1"
assigned_label = "inactive"

[[record]]
molecule = "O=c1[nH]cnc2ccsc12"
assigned_label = "inactive"

